molecular target: CFTR (Homo sapiens, UniProt P13569); assay: Membrane Potential Dye, Enteroid Assay A; type: cell-based; settings: Table 8; read-out: Ent. A EC50
Sequence (P13569 with tags, fused parts or gaps DEL508-508): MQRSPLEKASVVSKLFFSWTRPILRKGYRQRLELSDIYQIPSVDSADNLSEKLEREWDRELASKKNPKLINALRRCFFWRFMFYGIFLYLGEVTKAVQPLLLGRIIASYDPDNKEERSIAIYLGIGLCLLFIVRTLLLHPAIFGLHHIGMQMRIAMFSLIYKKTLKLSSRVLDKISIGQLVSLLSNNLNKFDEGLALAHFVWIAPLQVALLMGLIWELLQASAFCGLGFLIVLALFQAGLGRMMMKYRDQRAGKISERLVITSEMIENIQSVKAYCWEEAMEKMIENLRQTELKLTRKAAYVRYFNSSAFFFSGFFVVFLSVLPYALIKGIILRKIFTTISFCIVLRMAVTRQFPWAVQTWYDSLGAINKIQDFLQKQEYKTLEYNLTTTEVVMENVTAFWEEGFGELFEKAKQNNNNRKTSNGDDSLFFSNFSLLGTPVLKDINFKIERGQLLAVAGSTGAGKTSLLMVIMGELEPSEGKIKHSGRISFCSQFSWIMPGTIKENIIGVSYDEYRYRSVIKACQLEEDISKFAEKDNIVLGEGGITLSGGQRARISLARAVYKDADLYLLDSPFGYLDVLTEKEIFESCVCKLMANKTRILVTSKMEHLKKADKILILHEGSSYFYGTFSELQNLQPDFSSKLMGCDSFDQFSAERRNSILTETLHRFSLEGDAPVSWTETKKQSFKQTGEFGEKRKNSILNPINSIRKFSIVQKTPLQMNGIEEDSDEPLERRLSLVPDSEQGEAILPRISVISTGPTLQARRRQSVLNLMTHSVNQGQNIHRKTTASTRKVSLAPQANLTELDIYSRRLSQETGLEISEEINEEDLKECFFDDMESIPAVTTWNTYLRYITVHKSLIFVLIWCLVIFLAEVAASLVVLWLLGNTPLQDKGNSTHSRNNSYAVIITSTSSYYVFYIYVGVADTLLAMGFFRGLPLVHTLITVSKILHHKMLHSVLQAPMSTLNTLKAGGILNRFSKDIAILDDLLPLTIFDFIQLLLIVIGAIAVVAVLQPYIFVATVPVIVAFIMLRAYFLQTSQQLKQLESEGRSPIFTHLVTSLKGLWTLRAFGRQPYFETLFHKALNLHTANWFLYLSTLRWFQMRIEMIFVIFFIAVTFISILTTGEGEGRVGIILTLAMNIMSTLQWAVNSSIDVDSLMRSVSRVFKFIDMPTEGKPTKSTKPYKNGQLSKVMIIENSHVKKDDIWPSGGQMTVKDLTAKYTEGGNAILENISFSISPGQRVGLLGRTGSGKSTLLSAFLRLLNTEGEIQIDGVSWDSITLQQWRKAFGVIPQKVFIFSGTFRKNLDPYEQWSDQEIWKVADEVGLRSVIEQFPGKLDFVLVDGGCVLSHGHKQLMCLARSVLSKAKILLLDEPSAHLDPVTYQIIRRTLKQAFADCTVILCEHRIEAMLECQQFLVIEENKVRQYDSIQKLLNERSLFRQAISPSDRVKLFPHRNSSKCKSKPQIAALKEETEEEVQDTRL
Kindly supply the reported EC50 values for the records listed here.

Query: Any idea what its EC50 is? The molecule is Cc1cccc(C)c1-c1cc2nc(n1)NS(=O)(=O)c1cccc(c1)C(=O)N[C@H](CC1CCCCC1)[C@@H](C)O2
Result: < 1 µM

Query: What value of measured EC50 is listed for Cc1cc(C(F)(F)F)n(-c2cc3nc(n2)NS(=O)(=O)c2cccc(c2)C(=O)N[C@H](CC(C)C)CO3)n1 ?
Result: < 1 µM

Query: Form field: reported EC50 of Cc1cccc(C)c1-c1cc2nc(n1)NS(=O)(=O)c1cccc(c1)C(=O)NCC(c1ccc(C(C)C)cc1)O2 (stereo not shown) [Compound 271]
Result: < 1 µM

Query: Which EC50 value belongs to Cc1cccc(C)c1-c1cc2nc(n1)NS(=O)(=O)c1cccc(c1)C(=O)NCC(c1ccc(C3CC3)cc1)O2 (stereo not shown) ?
Result: < 1 µM

Query: Given Cc1cccc(C)c1-c1cc2nc(n1)NS(=O)(=O)c1cccc(c1)C(=O)NCC(c1ccc3c(c1)CC(C)(C)O3)O2 (stereo not shown) , state its recorded EC50.
Result: 1 to 3 µM

Query: Please give the measured EC50 for this molecule: Cc1cccc(C)c1-c1cc2nc(n1)NS(=O)(=O)c1cccc(c1)C(=O)NCC(C(=O)NCCC(C)(C)C)O2 (stereo not shown)
Result: 3 to 30 µM

Query: For the molecule Cc1cccc(C)c1-c1cc2nc(n1)NS(=O)(=O)c1cccc(c1)C(=O)NC[C@H](c1ccc(C(F)(F)F)cc1)O2 (stereo in doubt) , what EC50 is on record?
Result: 3 to 30 µM

Query: Need EC50 of Cc1cccc(C)c1-c1cc2nc(n1)NS(=O)(=O)c1cncc(c1)C(=O)N[C@H](CC(C)C)CO2 , thanks.
Result: 1 to 3 µM

Query: Need EC50, item Cc1cccc(C)c1-c1cc2nc(n1)NS(=O)(=O)c1cccc(c1)C(=O)NCC(c1ccc(C3(C(F)(F)F)CC3)cc1)O2 (racemic) [Compound 9]
Result: < 1 µM

Query: Need EC50, item Cc1cccc(C)c1-c1cc2nc(n1)NS(=O)(=O)c1cccc(c1)C(=O)N[C@H](C)[C@@H](c1ccc(C(C)(C)C)cc1)O2
Result: < 1 µM

Query: Please look up its EC50: Cc1ccccc1C1CNC(=O)c2cccc(c2)S(=O)(=O)Nc2nc(cc(-c3c(C)cccc3C)n2)O1 (stereo not shown)
Result: < 1 µM

Query: Need EC50 of Cc1cccc(C)c1-c1cc2nc(n1)NS(=O)(=O)c1cccc(c1)C(=O)NC[C@H](c1cccc(C(C)(C)C)c1)O2 (stereo in doubt) , thanks.
Result: 3 to 30 µM

Query: Which EC50 reading was recorded for the molecule Cc1cccc(C)c1-c1cc2nc(n1)NS(=O)(=O)c1cccc(c1)C(=O)NC[C@@H](c1ccc(C(C)(F)F)cc1)O2 (stereo in doubt) [Compound 400] ?
Result: 1 to 3 µM
